Assay: Early clinical trial: sex differences of ginsenoside compound K pharmacokinetics (Supplementary Table 1)
Conditions: female, human, in vivo
readout.name: Tmax (h)
Hi! Could you send only the number? It should be in h, unit omitted.

Q) Which Tmax value is on record for CC(C)=CCCC(C)(OC1OC(CO)C(O)C(O)C1O)C1CCC2(C)C1C(O)CC1C3(C)CCC(O)C(C)(C)C3CCC12C (stereo not shown) ?
A) 2.58

----------
Item-by-item account of Cmax
Assay: Food-effect two-period crossover trial: plasma pharmacokinetics after a single 200 mg oral dose of Ginsenoside CK Tablets
Format: in vivo, human
Details: female, human, plasma, po, 200 mg, plasma; single oral 200 mg CK; FO, female; read-out: Cmax
Hi! Could you send only the number? It should be in ng/mL, unit omitted.

{"compound": "CC(C)=CCCC(C)(OC1OC(CO)C(O)C(O)C1O)C1CCC2(C)C1C(O)CC1C3(C)CCC(O)C(C)(C)C3CCC12C (centres unmarked)", "Cmax [ng/mL]": 921}

Okay, next one:
Q) Which Cmax value is on record for CC(C)=CCC[C@](C)(O)C1CC[C@]2(C)C1[C@H](O)CC1[C@@]3(C)CC[C@H](O)C(C)(C)C3CC[C@]12C (stereo partly drawn) [20(S)-PPD, 20(S)-protopanaxadiol] ?
A) 6.4

----------
Assay: Food-effect two-period crossover trial: plasma pharmacokinetics after a single 200 mg oral dose of Ginsenoside CK Tablets
Type: in vivo, human
Conditions: female, human, plasma, po, 200 mg; single oral 200 mg CK; FO
Experimental: The food-effect trial was an open-label, randomized, two-period, two-treatment crossover trial, carried out from 15 January to 31 March 2015. […] Descriptive statistics of PK parameters were calculated using established non-compartmental methods, utilizing the WinNonLin version 6.1 software (Pharsight Corporation, USA). […] The values of AUC were calculated using conventional trapezoidal and log-trapezoidal methods and the extrapolated area (Rowland and Tozer, [1995]). […]
readout.name: AUC(0-t) (ng·h/mL)
Hi! Could you send only the number? It should be in ng·h/mL, unit omitted.

{"compound": "CC(C)=CCCC(C)(OC1OC(CO)C(O)C(O)C1O)C1CCC2(C)C1C(O)CC1C3(C)CCC(O)C(C)(C)C3CCC12C (centres unmarked)", "AUC(0-t), ng·h/mL": 6750}

Okay, next one:
Q) Which AUC(0-t) value is on record for CC(C)=CCC[C@](C)(O)C1CC[C@]2(C)C1[C@H](O)CC1[C@@]3(C)CC[C@H](O)C(C)(C)C3CC[C@]12C (stereo partly drawn) [20(S)-PPD, 20(S)-protopanaxadiol] ?
A) 203

Where do these numbers come from? They come from paper PMC5602130.
